Assign viability, T/C to each entry below.
# Tested on: 922993-354-T-J3-PDC complex spheroids, viability, % test/control
# ASSAY_DETAILS: Anticancer human tumor 922993-354-T-J3-PDC patient-derived endometrial carcinoma cell line growth inhibition [CLK]
# STUDY_CONDITIONS: second compound 0.316 µM; first compound 3.16 µM; hits give low values
Give bare numbers, in %.

MOLECULE	MEASUREMENT_UNIT	viability, T/C
CC(CO)NC(=O)c1cc(-c2ccc(Cl)cc2)nn(-c2cnn(C)c2)c1=O (stereo not given) + CN1CCN(c2cc(C(=O)Nc3cc4cc(-c5cnn(C)c5)ccc4cn3)ccn2)CC1	%	35.3
CCCS(=O)(=O)Nc1ccc(F)c(C(=O)c2c[nH]c3ncc(-c4ccc(Cl)cc4)cc23)c1F + CNC(=O)c1ccc(Nc2nc(OC3CCCC3)c3c(-c4ccc5nc(C)oc5c4)c[nH]c3n2)c(OC)c1	%	49.1
CC(=O)O[C@H]1C(=O)[C@@]2(C)[C@H]([C@H](OC(=O)c3ccccc3)[C@]3(O)C[C@H](OC(=O)[C@H](O)[C@@H](NC(=O)c4ccccc4)c4ccccc4)C(C)=C1C3(C)C)[C@]1(OC(C)=O)CO[C@@H]1C[C@@H]2O + CNC(=O)c1ccc(Nc2nc(OC3CCCC3)c3c(-c4ccc5nc(C)oc5c4)c[nH]c3n2)c(OC)c1	%	79.7
CC(CO)NC(=O)c1cc(-c2ccc(Cl)cc2)nn(-c2cnn(C)c2)c1=O (stereo not given) + CNC(=O)c1ccc(Nc2nc(OC3CCCC3)c3c(-c4ccc5nc(C)oc5c4)c[nH]c3n2)c(OC)c1	%	59.3
Nc1ccn(C2OC(CO)C(O)C2(F)F)c(=O)n1 (stereo not given) + CN1CCN(c2cc(C(=O)Nc3cc4cc(-c5cnn(C)c5)ccc4cn3)ccn2)CC1	%	12.5

Quick batch: viability, T/C for everything below.
1. C=CC(=O)N1CCN(c2nc(=O)n(-c3c(C)ccnc3C(C)C)c3nc(-c4c(O)cccc4F)c(F)cc23)C(C)C1 (stereo not given) + CNC(=O)c1ccc(Nc2nc(OC3CCCC3)c3c(-c4ccc5nc(C)oc5c4)c[nH]c3n2)c(OC)c1
2. O=c1[nH]cc(F)c(=O)[nH]1 + CN1CCN(c2cc(C(=O)Nc3cc4cc(-c5cnn(C)c5)ccc4cn3)ccn2)CC1
3. COc1ccc([C@@H](O)c2cc(-c3ncnc4cc(N5CCOCC5)ccc34)c(F)cc2Cl)nn1 + CN1CCN(c2cc(C(=O)Nc3cc4cc(-c5cnn(C)c5)ccc4cn3)ccn2)CC1
4. O=C(c1cc(Cc2n[nH]c(=O)c3ccccc23)ccc1F)N1CCN(C(=O)C2CC2)CC1 + CNC(=O)c1ccc(Nc2nc(OC3CCCC3)c3c(-c4ccc5nc(C)oc5c4)c[nH]c3n2)c(OC)c1
5. Nc1ccccc1NC(=O)c1ccc(CNC(=O)OCc2cccnc2)cc1 + CN1CCN(c2cc(C(=O)Nc3cc4cc(-c5cnn(C)c5)ccc4cn3)ccn2)CC1

1: 69.3; 2: 38; 3: 24.9; 4: 66; 5: 6.16

* * *

# System: 922993-354-T-J3-PDC complex spheroids, viability, % test/control
# ASSAY_DETAILS: Anticancer human tumor 922993-354-T-J3-PDC cell line growth inhibition [CLK];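 also: spheroids exposed to the agents for 7 days before readout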
# STUDY_CONDITIONS: second compound 0.316 µM; first compound 0.316 µM; hits give low values
Categories are assigned from the measured viability, T/C using these intervals: lower = under 30%, middle = from 30% up to 60%, upper = 60% and over

Sample answers from the record:
COMPOUND	CATEGORY
CC(Nc1ccc2c(c1)OCCn1cc(N3C(=O)OCC3C(F)F)nc1-2)C(N)=O (stereo not given) + CNC(=O)c1ccc(Nc2nc(OC3CCCC3)c3c(-c4ccc5nc(C)oc5c4)c[nH]c3n2)c(OC)c1	upper
CCCS(=O)(=O)Nc1ccc(F)c(C(=O)c2c[nH]c3ncc(-c4ccc(Cl)cc4)cc23)c1F + CN1CCN(c2cc(C(=O)Nc3cc4cc(-c5cnn(C)c5)ccc4cn3)ccn2)CC1	middle
O=C(c1cc(Cc2n[nH]c(=O)c3ccccc23)ccc1F)N1CCN(C(=O)C2CC2)CC1 + CN1CCN(c2cc(C(=O)Nc3cc4cc(-c5cnn(C)c5)ccc4cn3)ccn2)CC1	lower
Nc1ccn(C2OC(CO)C(O)C2(F)F)c(=O)n1 (stereo not given) + CN1CCN(c2cc(C(=O)Nc3cc4cc(-c5cnn(C)c5)ccc4cn3)ccn2)CC1	lower
COC1C=CCC(C)C(C)S(=O)(=O)NC(=O)c2ccc3c(c2)N(CC2CCC21)CC1(CCCc2cc(Cl)ccc21)CO3 (stereo not given) + CN1CCN(c2cc(C(=O)Nc3cc4cc(-c5cnn(C)c5)ccc4cn3)ccn2)CC1	middle

Which class holds COC1C=CCC(C)C(C)S(=O)(=O)NC(=O)c2ccc3c(c2)N(CC2CCC21)CC1(CCCc2cc(Cl)ccc21)CO3 (stereo not given) + CNC(=O)c1ccc(Nc2nc(OC3CCCC3)c3c(-c4ccc5nc(C)oc5c4)c[nH]c3n2)c(OC)c1 ?
upper

Lab log: CCc1c2c(nc3ccc(O)cc13)-c1cc3c(c(=O)n1C2)COC(=O)[C@]3(O)CC + CN1CCN(c2cc(C(=O)Nc3cc4cc(-c5cnn(C)c5)ccc4cn3)ccn2)CC1 — assign viability, T/C category
lower

Which bin, given its viability, T/C, does CC(Nc1ccc2c(c1)OCCn1cc(N3C(=O)OCC3C(F)F)nc1-2)C(N)=O (stereo not given) + CN1CCN(c2cc(C(=O)Nc3cc4cc(-c5cnn(C)c5)ccc4cn3)ccn2)CC1 occupy?
lower

Field: class (viability, T/C) — entry: COc1ccc([C@@H](O)c2cc(-c3ncnc4cc(N5CCOCC5)ccc34)c(F)cc2Cl)nn1 + CNC(=O)c1ccc(Nc2nc(OC3CCCC3)c3c(-c4ccc5nc(C)oc5c4)c[nH]c3n2)c(OC)c1
upper

Hi there! Could you help me figure out the category for COc1cccc2c1C(=O)c1c(O)c3c(c(O)c1C2=O)CC(O)(C(=O)CO)CC3OC1CC(N)C(O)C(C)O1 (stereo not given) + CN1CCN(c2cc(C(=O)Nc3cc4cc(-c5cnn(C)c5)ccc4cn3)ccn2)CC1 please?
middle

Which category fits this record: CC(CO)NC(=O)c1cc(-c2ccc(Cl)cc2)nn(-c2cnn(C)c2)c1=O (stereo not given) + CNC(=O)c1ccc(Nc2nc(OC3CCCC3)c3c(-c4ccc5nc(C)oc5c4)c[nH]c3n2)c(OC)c1
middle

# classify by viability, T/C band: Nc1ccccc1NC(=O)c1ccc(CNC(=O)OCc2cccnc2)cc1 + CN1CCN(c2cc(C(=O)Nc3cc4cc(-c5cnn(C)c5)ccc4cn3)ccn2)CC1
middle

Exercise: read the entry CC(=O)O[C@H]1C(=O)[C@@]2(C)[C@H]([C@H](OC(=O)c3ccccc3)[C@]3(O)C[C@H](OC(=O)[C@H](O)[C@@H](NC(=O)c4ccccc4)c4ccccc4)C(C)=C1C3(C)C)[C@]1(OC(C)=O)CO[C@@H]1C[C@@H]2O + CNC(=O)c1ccc(Nc2nc(OC3CCCC3)c3c(-c4ccc5nc(C)oc5c4)c[nH]c3n2)c(OC)c1 and state which class it falls under.
upper

Bin? COc1c(OCCCN2CCOCC2)ccc2c3n(c(=NC(=O)c4cnc(N)nc4)nc12)CCN3 + CNC(=O)c1ccc(Nc2nc(OC3CCCC3)c3c(-c4ccc5nc(C)oc5c4)c[nH]c3n2)c(OC)c1
middle

Using the reported viability, T/C, which band applies to CCCS(=O)(=O)Nc1ccc(F)c(C(=O)c2c[nH]c3ncc(-c4ccc(Cl)cc4)cc23)c1F + CNC(=O)c1ccc(Nc2nc(OC3CCCC3)c3c(-c4ccc5nc(C)oc5c4)c[nH]c3n2)c(OC)c1 ?
middle

Which viability, T/C category applies to C=CC(=O)N1CCN(c2nc(=O)n(-c3c(C)ccnc3C(C)C)c3nc(-c4c(O)cccc4F)c(F)cc23)C(C)C1 (stereo not given) + CN1CCN(c2cc(C(=O)Nc3cc4cc(-c5cnn(C)c5)ccc4cn3)ccn2)CC1 here?
middle

For this compound, which bin applies? C#Cc1c(F)ccc2cc(O)cc(-c3ncc4c(N5CC6CCC(C5)N6)nc(OCC56CCCN5CC(F)C6)nc4c3F)c12 (stereo not given) + CN1CCN(c2cc(C(=O)Nc3cc4cc(-c5cnn(C)c5)ccc4cn3)ccn2)CC1
middle

Form: Item = Nc1ccccc1NC(=O)c1ccc(CNC(=O)OCc2cccnc2)cc1 + CNC(=O)c1ccc(Nc2nc(OC3CCCC3)c3c(-c4ccc5nc(C)oc5c4)c[nH]c3n2)c(OC)c1 ; Class = ?
middle

* * *

# Tested on: 922993-354-T-J3-PDC complex spheroids, viability, % test/control
# ASSAY_DETAILS: Anticancer human tumor 922993-354-T-J3-PDC cell line growth inhibition [CLK];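 also: spheroids exposed to the agents for 7 days before readout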
# STUDY_CONDITIONS: second compound 0.316 µM; first compound 0.0316 µM; hits give low values
READOUT_NAME: viability, T/C (%)
Numbers only, in %.

// worked examples, viability, T/C included
COMPOUND	TARGET_ENTITY	viability, T/C, %
Nc1ccccc1NC(=O)c1ccc(CNC(=O)OCc2cccnc2)cc1 + CNC(=O)c1ccc(Nc2nc(OC3CCCC3)c3c(-c4ccc5nc(C)oc5c4)c[nH]c3n2)c(OC)c1	922993-354-T-J3-PDC complex spheroids, viability, % test/control	59.1
CCCS(=O)(=O)Nc1ccc(F)c(C(=O)c2c[nH]c3ncc(-c4ccc(Cl)cc4)cc23)c1F + CN1CCN(c2cc(C(=O)Nc3cc4cc(-c5cnn(C)c5)ccc4cn3)ccn2)CC1	922993-354-T-J3-PDC complex spheroids, viability, % test/control	46.6
CC(Nc1ccc2c(c1)OCCn1cc(N3C(=O)OCC3C(F)F)nc1-2)C(N)=O (stereo not given) + CN1CCN(c2cc(C(=O)Nc3cc4cc(-c5cnn(C)c5)ccc4cn3)ccn2)CC1	922993-354-T-J3-PDC complex spheroids, viability, % test/control	49.6

Report viability, T/C for each item below.
1. CC(CO)NC(=O)c1cc(-c2ccc(Cl)cc2)nn(-c2cnn(C)c2)c1=O (stereo not given) + CN1CCN(c2cc(C(=O)Nc3cc4cc(-c5cnn(C)c5)ccc4cn3)ccn2)CC1
2. Cn1ncnc1[C@H]1c2n[nH]c(=O)c3cc(F)cc(c23)N[C@@H]1c1ccc(F)cc1 + CNC(=O)c1ccc(Nc2nc(OC3CCCC3)c3c(-c4ccc5nc(C)oc5c4)c[nH]c3n2)c(OC)c1

47.6
76.1

Cited source: PubChem BioAssay AID2060606
